- Target Of Assay: class C beta-lactamase P99 (AmpC) (Enterobacter cloacae, UniProt P05364)
- Sequence (P05364 21-381): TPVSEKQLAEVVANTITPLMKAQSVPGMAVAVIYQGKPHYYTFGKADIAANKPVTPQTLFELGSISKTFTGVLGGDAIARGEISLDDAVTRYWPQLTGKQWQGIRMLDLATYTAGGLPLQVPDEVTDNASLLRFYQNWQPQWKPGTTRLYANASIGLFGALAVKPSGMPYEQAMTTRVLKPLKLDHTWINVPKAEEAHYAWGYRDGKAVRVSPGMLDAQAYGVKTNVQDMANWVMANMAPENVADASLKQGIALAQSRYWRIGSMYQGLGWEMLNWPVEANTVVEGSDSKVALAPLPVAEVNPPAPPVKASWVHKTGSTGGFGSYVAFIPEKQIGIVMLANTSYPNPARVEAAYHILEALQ
- Measurement Description: IC50 determination with nitrocefin as reporter substrate, P99
Measured Quantity: IC50 (nM)

- Compound: "CO[C@H]1CCC[C@H]2C1=C(C(=O)O)N1C(=O)C(C(C)O)[C@@H]21 (stereo partly shown) [LK-176]"
  Value Measured: 0.15

====

- Test system: E. cloacae 4013
- Measurement Description: Broth microdilution susceptibility assay (MIC), strain S3
- Assay type: cell-based
- Condition Info: Table 2 lower part; duplicate; CAMHB, 35° C., 24 h
Reported MIC S3 by item:

- Compound: "CCN1CCN(C(=O)N[C@@H](C(=O)N[C@@H]2C(=O)N3[C@@H]2SC(C)(C)[C@@H]3C(=O)O)c2ccccc2)C(=O)C1=O [Piperacillin (PIP), piperacillin]"
  Op: ">"
  MIC S3, mg/L: 128
- Compound: "CO/N=C(\\C(=O)N[C@@H]1C(=O)N2C(C(=O)O)=C(CSc3nc(=O)c(O)nn3C)CS[C@H]12)c1csc(N)n1 [Ceftriaxone (TRI), ceftriaxone]"
  Op: "="
  MIC S3, mg/L: 32
- Compound: "CO[C@H]1CCC[C@H]2C1=C(C(=O)O)N1C(=O)C(C(C)O)[C@@H]21 (stereo partly shown) [LK-176]"
  Op: "="
  MIC S3, mg/L: 32
- Compound: "CO/N=C(\\C(=O)N[C@@H]1C(=O)N2C(C(=O)O)=C(COC(N)=O)CS[C@H]12)c1ccco1 [Cefuroxime (URO), cefuroxime]"
  Op: ">"
  MIC S3, mg/L: 128
